biological target: human H3 receptor (Homo sapiens, UniProt Q9Y5N1); construct: expressed in transfected cells; experiment: Human H3 radioligand binding ([3H]-N-alpha-methylhistamine, SPA)
Sequence (Q9Y5N1 whole entry): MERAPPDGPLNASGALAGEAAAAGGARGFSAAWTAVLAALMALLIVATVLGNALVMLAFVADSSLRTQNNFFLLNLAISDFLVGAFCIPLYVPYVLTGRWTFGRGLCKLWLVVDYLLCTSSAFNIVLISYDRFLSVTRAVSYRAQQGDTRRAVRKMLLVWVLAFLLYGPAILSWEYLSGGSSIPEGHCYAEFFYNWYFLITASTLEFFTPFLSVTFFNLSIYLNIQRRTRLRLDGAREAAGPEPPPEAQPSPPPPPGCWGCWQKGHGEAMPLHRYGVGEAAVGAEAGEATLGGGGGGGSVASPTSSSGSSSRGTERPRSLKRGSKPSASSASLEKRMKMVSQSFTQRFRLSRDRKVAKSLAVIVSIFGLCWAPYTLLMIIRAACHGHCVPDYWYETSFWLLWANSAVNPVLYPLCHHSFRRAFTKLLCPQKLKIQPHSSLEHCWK
pKi: −log10 of the molar value.
Each record here notes measured pKi.
QUANTITY MEASURED: pKi

1. O=C1CCN(C(=O)c2ccc(-c3ccc4c(c3)CCC3(CCN(C5CCC5)CC3)O4)cc2)CC1
> 6.70
2. CC(C)S(=O)(=O)N1CCC(Oc2ccc3c(c2)CCC2(CCN(C4CCC4)CC2)O3)CC1
> 6.70
3. O=C(Nc1ccc2c(c1)CCC1(CCN(C3CCC3)CC1)O2)c1cnnc2ccccc12
> 6.70
